Provide the recorded IC50 Ratio JAK2/JAK1 for the entries that follow.
target: human JAK1 (a.a. 837-1142); test: In vitro JAK kinase assay (HTRF, phosphorylation of a biotinylated peptide), JAK1; assay type: biochemical; details: ratio of JAK2 IC50 to JAK1 IC50, measured at 1 mM ATP

Prompt: # lookup: IC50 Ratio JAK2/JAK1 of COc1ccc(F)cc1C(=O)N1CCC(N2CC(CC#N)(n3cc(-c4ncnc5[nH]ccc45)cn3)C2)CC1 [Example 38]
Response: 5.7

Prompt: # lookup: IC50 Ratio JAK2/JAK1 of Cc1ccc(NC(=O)N2CCC(N3CC(CC#N)(n4cc(-c5ncnc6[nH]ccc56)cn4)C3)CC2)c(C)n1 [Example 189]
Response: 3.5

Prompt: # lookup: IC50 Ratio JAK2/JAK1 of N#CCC1(n2cc(-c3ccnc4[nH]ccc34)cn2)CN(C2CCN(C(=O)Nc3ccc(F)cc3C(F)(F)F)CC2)C1 [Example 303]
Response: 19.7

Prompt: # lookup: IC50 Ratio JAK2/JAK1 of N#CCC1(n2cc(-c3ncnc4[nH]ccc34)cn2)CN(C2CC3CCC(C2)N3C(=O)c2ccc(C#N)c(F)c2)C1 (stereo not shown) [Example 140]
Response: 5.4

Prompt: # lookup: IC50 Ratio JAK2/JAK1 of CN(C)c1ccc(C(=O)N2CCC(N3CC(CC#N)(n4cc(-c5ncnc6[nH]ccc56)cn4)C3)CC2)cc1C#N [Example 59]
Response: 4.6

Prompt: # lookup: IC50 Ratio JAK2/JAK1 of CC1(COC(=O)N2CCC(N3CC(CC#N)(n4cc(-c5ncnc6[nH]ccc56)cn4)C3)CC2)CC1 [Example 392]
Response: 5.6

Prompt: # lookup: IC50 Ratio JAK2/JAK1 of N#CCC1(n2cc(-c3ncnc4[nH]ccc34)cn2)CN(C2CCN(C(=O)Nc3cc(F)ccc3F)CC2)C1 [Example 174]
Response: 7.1

====

biological target: human JAK1 (a.a. 837-1142); assay: In vitro JAK kinase assay (HTRF, phosphorylation of a biotinylated peptide), JAK1; assay type: biochemical; settings: ratio of JAK2 IC50 to JAK1 IC50, measured at 1 mM ATP
Metric: IC50 Ratio JAK2/JAK1

Prompt: Give human JAK1 (a.a. 837-1142) IC50 Ratio JAK2/JAK1 for N#CCC1(n2cc(-c3ncnc4[nH]ccc34)cn2)CN(C2CCN(Cc3cc(F)cc(F)c3)CC2)C1 [Example 215]
Response: 5.7

Prompt: Give human JAK1 (a.a. 837-1142) IC50 Ratio JAK2/JAK1 for N#CCC1(n2cc(-c3ncnc4[nH]ccc34)cn2)CN(C2CCN(C(=O)Nc3ccc(F)c(F)c3)CC2)C1 [Example 176]
Response: 5.1

Prompt: Give human JAK1 (a.a. 837-1142) IC50 Ratio JAK2/JAK1 for COc1ccc(C(=O)N2CCC(N3CC(CC#N)(n4cc(-c5ncnc6[nH]ccc56)cn4)C3)CC2)cc1F [Example 5]
Response: 12.0

Prompt: Give human JAK1 (a.a. 837-1142) IC50 Ratio JAK2/JAK1 for COc1ncccc1NC(=O)N1CCC(N2CC(CC#N)(n3cc(-c4ccnc5[nH]ccc45)cn3)C2)CC1 [Example 306]
Response: 3.5

Prompt: Give human JAK1 (a.a. 837-1142) IC50 Ratio JAK2/JAK1 for N#CCC1(n2cc(-c3ncnc4[nH]ccc34)cn2)CN(C2CCN(C(=O)OCc3ccc(F)c(F)c3)CC2)C1 [Example 394]
Response: 11.1

Prompt: Give human JAK1 (a.a. 837-1142) IC50 Ratio JAK2/JAK1 for N#CCC1(n2cc(-c3ncnc4[nH]ccc34)cn2)CN(C2CCN(Cc3ccc(C#N)c(F)c3)CC2)C1 [Example 229]
Response: 6.4

Prompt: Give human JAK1 (a.a. 837-1142) IC50 Ratio JAK2/JAK1 for N#CCC1(n2cc(-c3ncnc4[nH]ccc34)cn2)CN(C2CCN(Cc3cc(Br)nc(Br)c3)CC2)C1 [Example 225]
Response: 3.8

====

target: human JAK1 (a.a. 837-1142); test: In vitro JAK kinase assay (HTRF, phosphorylation of a biotinylated peptide), JAK1; format: biochemical; conditions: ratio of JAK2 IC50 to JAK1 IC50, measured at 1 mM ATP
Field: label. Allowed values: rule met (IC50 Ratio JAK2/JAK1 < 7) or rule not met (IC50 Ratio JAK2/JAK1 >= 7).

Prompt: Is 7 strictly greater than the molecule's reported IC50 Ratio JAK2/JAK1? molecule: Cc1nc(C(F)(F)F)ccc1NC(=O)N1CCC(N2CC(CC#N)(n3cc(-c4ncnc5[nH]ccc45)cn3)C2)CC1
Response: rule met

Prompt: Is 7 strictly greater than the molecule's reported IC50 Ratio JAK2/JAK1? molecule: CN(C)Cc1cc(C(=O)N2CCC(N3CC(CC#N)(n4cc(-c5ncnc6[nH]ccc56)cn4)C3)CC2)c(F)c(C(F)(F)F)n1
Response: rule not met

Prompt: Is 7 strictly greater than the molecule's reported IC50 Ratio JAK2/JAK1? molecule: N#CCC1(n2ccc(-c3ncnc4[nH]ccc34)c2)CN(C2CCN(C(=O)c3ccc(C(F)(F)F)c(F)c3)CC2)C1
Response: rule met

Prompt: Is 7 strictly greater than the molecule's reported IC50 Ratio JAK2/JAK1? molecule: N#CCC1(n2cc(-c3ncnc4[nH]ccc34)cn2)CN(C2CCN(Cc3cccc(Cl)c3Cl)CC2)C1
Response: rule met

Prompt: Is 7 strictly greater than the molecule's reported IC50 Ratio JAK2/JAK1? molecule: N#CCC1(n2cc(-c3ncnc4[nH]ccc34)cn2)CN(C2CCN(C(=O)c3c(F)cc(C#N)cc3F)CC2)C1
Response: rule met

Prompt: Is 7 strictly greater than the molecule's reported IC50 Ratio JAK2/JAK1? molecule: COc1ccsc1C(=O)N1CCC(N2CC(CC#N)(n3cc(-c4ncnc5[nH]ccc45)cn3)C2)CC1
Response: rule met

Prompt: Is 7 strictly greater than the molecule's reported IC50 Ratio JAK2/JAK1? molecule: CCOC(=O)N1CCC(N2CC(CC#N)(n3cc(-c4ncnc5[nH]ccc45)cn3)C2)CC1
Response: rule not met

Prompt: Is 7 strictly greater than the molecule's reported IC50 Ratio JAK2/JAK1? molecule: N#CCC1(n2ccc(-c3ncnc4[nH]ccc34)c2)CN(C2CCN(C(=O)c3cc(F)ccc3C(F)(F)F)CC2)C1
Response: rule met

Prompt: Is 7 strictly greater than the molecule's reported IC50 Ratio JAK2/JAK1? molecule: CCn1nccc1NC(=O)N1CCC(N2CC(CC#N)(n3cc(-c4ncnc5[nH]ccc45)cn3)C2)CC1
Response: rule not met

Prompt: Is 7 strictly greater than the molecule's reported IC50 Ratio JAK2/JAK1? molecule: N#CCC1(n2cc(-c3ncnc4[nH]ccc34)cn2)CN(C2CCN(C(=O)c3cncc(C(F)(F)F)n3)CC2)C1
Response: rule not met

Prompt: Is 7 strictly greater than the molecule's reported IC50 Ratio JAK2/JAK1? molecule: CN(C)c1ccc(C(=O)N2CCC(N3CC(CC#N)(n4cc(-c5ncnc6[nH]ccc56)cn4)C3)CC2)c(F)c1C#N
Response: rule met

Prompt: Is 7 strictly greater than the molecule's reported IC50 Ratio JAK2/JAK1? molecule: N#CCC1(n2cc(-c3ncnc4[nH]ccc34)cn2)CN(C2CCN(C(=O)c3c(F)cccc3F)CC2)C1
Response: rule met

Prompt: Is 7 strictly greater than the molecule's reported IC50 Ratio JAK2/JAK1? molecule: N#CCC1(n2cc(-c3ncnc4[nH]ccc34)cn2)CN(C2CCN(C(=O)c3ccc(-c4cccc5cccnc45)c(F)c3)CC2)C1
Response: rule met

====

biological target: Jak2 (a.a. 828-1132) (Homo sapiens (Human))
Sequence (O60674 828-1132): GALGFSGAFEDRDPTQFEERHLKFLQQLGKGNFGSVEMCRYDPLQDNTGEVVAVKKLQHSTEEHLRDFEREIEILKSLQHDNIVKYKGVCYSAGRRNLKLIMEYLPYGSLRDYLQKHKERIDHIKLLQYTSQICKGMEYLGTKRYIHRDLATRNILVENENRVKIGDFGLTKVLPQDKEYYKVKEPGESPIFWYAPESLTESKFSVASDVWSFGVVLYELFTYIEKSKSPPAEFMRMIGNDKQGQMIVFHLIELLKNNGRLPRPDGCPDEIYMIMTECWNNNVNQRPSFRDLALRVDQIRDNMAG
pIC50: −log10 of the molar value. Structures can show the parent of a compound that is named as a salt.
Metric: pIC50

Prompt: # lookup: pIC50 of N#CCC1(n2cc(-c3ncnc4[nH]ccc34)cn2)CN(C2CCN(C(=O)c3cc(Cl)sc3Cl)CC2)C1
Response: ≥ 8.00

Prompt: # lookup: pIC50 of N#CCC1(n2cc(-c3ncnc4[nH]ccc34)cn2)CN(C2CCN(C(=O)c3cc(CN4CC[C@@H](F)C4)nc(C(F)(F)F)n3)CC2)C1 [Example 378, TFA]
Response: 7.30 to 8.00

Prompt: # lookup: pIC50 of N#CCC1(n2cc(-c3ncnc4[nH]ccc34)cn2)CN(C2CCN(C(=O)Nc3nc(-c4ccc(Cl)cc4)cs3)CC2)C1
Response: 7.00 to 7.30

Prompt: # lookup: pIC50 of Cc1ccc(NC(=O)N2CCC(N3CC(CC#N)(n4cc(-c5ncnc6[nH]ccc56)cn4)C3)CC2)c(F)n1
Response: 7.30 to 8.00

Prompt: # lookup: pIC50 of N#CCC1(n2ccc(-c3ncnc4[nH]ccc34)c2)CN(C2CCN(C(=O)c3c(F)ccc(F)c3F)CC2)C1
Response: ≥ 8.00

Prompt: # lookup: pIC50 of N#CCC1(n2cc(-c3ncnc4[nH]ccc34)cn2)CN(C2CCN(C(=O)Nc3cnccc3C(F)(F)F)CC2)C1
Response: 7.00 to 7.30

Prompt: # lookup: pIC50 of Cc1cc(C)c(CC(=O)N2CCC(N3CC(CC#N)(n4cc(-c5ncnc6[nH]ccc56)cn4)C3)CC2)c(C)c1
Response: 7.00 to 7.30

Prompt: # lookup: pIC50 of N#CCC1(n2ccc(-c3ncnc4[nH]ccc34)c2)CN(C2CCN(C(=O)c3cc(F)cc(C(F)(F)F)c3)CC2)C1
Response: 7.30 to 8.00

Prompt: # lookup: pIC50 of N#CCC1(n2cc(-c3ncnc4[nH]ccc34)cn2)CN(C2CCN(Cc3ccc(-c4conn4)cc3)CC2)C1
Response: 7.30 to 8.00

Prompt: # lookup: pIC50 of N#CCC1(n2cc(-c3ncnc4[nH]ccc34)cn2)CN(C2CCN(C(=O)c3ccc(-c4ccc(C#N)cc4)cc3)CC2)C1
Response: 7.30 to 8.00

Prompt: # lookup: pIC50 of N#CCC1(n2cc(-c3ncnc4[nH]ccc34)cn2)CN(C2CC3CCC(C2)N3C(=O)c2ccc(C(F)(F)F)nc2)C1 (stereo not drawn)
Response: 7.30 to 8.00

Prompt: # lookup: pIC50 of N#CCC1(n2cc(-c3ncnc4[nH]ccc34)cn2)CN(C2CCN(C(=O)OCc3ccc(F)c(F)c3)CC2)C1
Response: 7.00 to 7.30

Prompt: # lookup: pIC50 of N#CCC1(n2cc(-c3ncnc4[nH]ccc34)cn2)CN(C2CCN(Cc3cccc(C#N)c3)CC2)C1
Response: 7.30 to 8.00

Prompt: # lookup: pIC50 of N#CCC1(n2cc(-c3ccnc4[nH]ccc34)cn2)CN(C2CCN(C(=O)Nc3ccc(F)cc3F)CC2)C1
Response: 7.30 to 8.00

Prompt: # lookup: pIC50 of N#CCC1(n2cc(-c3ncnc4[nH]ccc34)cn2)CN(C2CCN(C(=O)c3sc4cc(F)ccc4c3Cl)CC2)C1
Response: ≥ 8.00

Prompt: # lookup: pIC50 of N#CCC1(n2cc(-c3ncnc4[nH]ccc34)cn2)CN(C2CCN(C(=O)c3cccc4ccccc34)CC2)C1
Response: ≥ 8.00

Prompt: # lookup: pIC50 of Cn1ccc(S(=O)(=O)N2CCC(N3CC(CC#N)(n4cc(-c5ncnc6[nH]ccc56)cn4)C3)CC2)n1
Response: ≥ 8.00

Prompt: # lookup: pIC50 of N#CCC1(n2cc(-c3ncnc4[nH]ccc34)cn2)CN(C2CCN(C(=O)c3sccc3Cl)CC2)C1
Response: ≥ 8.00

Prompt: # lookup: pIC50 of N#CCC1(n2cc(-c3c(F)cnc4[nH]ccc34)cn2)CN(C2CCN(C(=O)C3CCC(F)(F)CC3)CC2)C1
Response: 7.00 to 7.30

Prompt: # lookup: pIC50 of CCN(CC)Cc1cc(C(=O)N2CCC(N3CC(CC#N)(n4cc(-c5ncnc6[nH]ccc56)cn4)C3)CC2)nc(C(F)(F)F)n1
Response: 7.30 to 8.00

Prompt: # lookup: pIC50 of N#CCC1(n2cc(-c3ncnc4[nH]ccc34)cn2)CN(C2CCN(C(=O)c3nc(C(F)(F)F)cs3)CC2)C1
Response: 7.00 to 7.30

Prompt: # lookup: pIC50 of N#CCC1(n2cc(-c3ncnc4[nH]ccc34)cn2)CN(C2CCN(C(=O)c3ccc(-c4cccc(C#N)c4)c(F)c3)CC2)C1
Response: 7.30 to 8.00

Prompt: # lookup: pIC50 of N#CCC1(n2cc(-c3c(F)cnc4[nH]ccc34)cn2)CN(C2CCN(C(=O)c3ccnc(C(F)(F)F)n3)CC2)C1
Response: 7.30 to 8.00

Prompt: # lookup: pIC50 of CNCc1cc(C(=O)N2CCC(N3CC(CC#N)(n4cc(-c5ncnc6[nH]ccc56)cn4)C3)CC2)nc(C(F)(F)F)n1 [Example 371, trifluoroacetate salt]
Response: 7.00 to 7.30

Prompt: # lookup: pIC50 of Cc1ccc(NC(=O)N2CCC(N3CC(CC#N)(n4cc(-c5ncnc6[nH]ccc56)cn4)C3)CC2)c(C)n1
Response: 7.30 to 8.00

Prompt: # lookup: pIC50 of N#CCC1(n2cc(-c3ncnc4[nH]ccc34)cn2)CN(C2CCN(C(=O)c3ccc(-c4ccccc4C#N)c(F)c3)CC2)C1
Response: ≥ 8.00

Prompt: # lookup: pIC50 of CN(C)c1ccc(S(=O)(=O)N2CCC(N3CC(CC#N)(n4cc(-c5ncnc6[nH]ccc56)cn4)C3)CC2)cc1C#N
Response: 7.30 to 8.00
